B1: SLC35F2 (parent)
chain: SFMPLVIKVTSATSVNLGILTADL

Variants of: B1
Assay: protein stability index of a GFP-peptide fusion (GPS, HEK-293T) (PSI 1-6); higher = more stable;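 also: lentivirally expressed fusions sorted by FACS into six bins by GFP to DsRed ratio, PSI derived from sequencing read proportions per bin multiplied by bin number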
Settings: c terminus: a fixed tail appended
endpoint: protein stability index
I'd appreciate a reply containing only the number, no unit.

Qu. Fill in the blank: the reported protein stability index of `L5A` is ____.
Ans. 3.18

Qu. Fill in the blank: the reported protein stability index of `L17N` is ____.
Ans. 2.99

Qu. Fill in the blank: the reported protein stability index of `L5N` is ____.
Ans. 2.24

Qu. Fill in the blank: the reported protein stability index of `D23C` is ____.
Ans. 2.29
